The reported measurements were obtained from the Immune Epitope Database (IEDB).

# Measured on: HLA-A*02:02
# Run description: IEDB peptide-MHC binding, cellular MHC/competitive/fluorescence; bounds were set here for any values at or beyond the usual limits of such assays
# Condition context: source organism: Vaccinia virus WR
pIC50: −log10 of the molar value.
Classify as follows. Reported pIC50 greater than or equal to 5: TRUE. Reported pIC50 below: FALSE.

# example entries with known answers
VLKAMHDKKI ... FALSE
RQLTSNVDV ... FALSE
NMWREILSNT ... TRUE
CALVSDCAST ... TRUE
PLHIVCSKTV ... FALSE
LANERYRSA ... FALSE
IMECSRMLDT ... TRUE
GIKGLDERFV ... TRUE

hey, is pIC50 for this one >= 5? `STSNVITDQT`
FALSE

hey, is pIC50 for this one >= 5? `TVEFDRDKVV`
FALSE

hey, is pIC50 for this one >= 5? `IVPDADPPI`
TRUE

hey, is pIC50 for this one >= 5? `YVILKDPRIA`
TRUE

hey, is pIC50 for this one >= 5? `GVPHSVFIA`
TRUE

---

Below, each entry is listed alongside its reported pIC50.
# Measured on: HLA-A*02:01
# Run description: IEDB peptide-MHC binding, purified MHC/competitive/radioactivity; bounds were set here for any values at or beyond the usual limits of such assays
# Condition context: source organism: Influenza A virus
Remember, pIC50 is on a log scale: it is -log10 of the molar concentration.

The examples below pair each entry with its known result.
SMGVYQILA ... 6.01
TSFFYRYGFV ... 5.96
WISFAISCFL ... 5.45
SCLENFRAYV ... 7.70

Which pIC50 is reported for this sequence? `FVEALARSI`
5.99

Which pIC50 is reported for this sequence? `QLMWALGENMA`
6.07

Which pIC50 is reported for this sequence? `FVFTLTVPS`
6.29

Which pIC50 is reported for this sequence? `MQIAILVTTV`
7.10

Which pIC50 is reported for this sequence? `QAIMDKNIIL`
5.99

Which pIC50 is reported for this sequence? `CLINDPWVL`
6.90

Which pIC50 is reported for this sequence? `NLYNIRNL`
5.87

Which pIC50 is reported for this sequence? `LVASSGTLEFI`
5.43

Which pIC50 is reported for this sequence? `WSYNAELLVA`
6.59

Which pIC50 is reported for this sequence? `GILGFVFTLT`
6.19

Which pIC50 is reported for this sequence? `RTFFLTQGA`
5.51

Which pIC50 is reported for this sequence? `VNPTLLFLKV`
5.43

---

# Measured on: HLA-A*02:02
# Run description: IEDB peptide-MHC binding, purified MHC/competitive/radioactivity; bounds were set here for any values at or beyond the usual limits of such assays
# Condition context: source organism: Vaccinia virus WR
Reported property: IC50 (nM)
Field format: number, assumed nM, no unit text.

RVNDLNRMPT ... 1360

Which IC50 is reported for this sequence? `LVFNSISARA`
1270

Which IC50 is reported for this sequence? `LTHFNNNENV`
907

Which IC50 is reported for this sequence? `TINVNSLAL`
1980

Which IC50 is reported for this sequence? `YLGHSAGFT`
874

---

Below, each entry is listed alongside its reported log10 of IC50.
# Measured on: HLA-A*02:01
# Run description: IEDB peptide-MHC binding, cellular MHC/competitive/fluorescence; bounds were set here for any values at or beyond the usual limits of such assays
# Condition context: source organism: Vaccinia virus WR
Parameter value (number): base-10 log of IC50 in µM.

TAGNKVDVDI ... 1.60

Which log10 of IC50 is reported for this sequence? `ILSIVGFRPT`
1.58

Which log10 of IC50 is reported for this sequence? `DVNEEYTEAA`
1.63

Which log10 of IC50 is reported for this sequence? `DISSFYWSL`
0.93

---

# Measured on: HLA-A*02:03
# Run description: IEDB peptide-MHC binding, cellular MHC/competitive/fluorescence; bounds were set here for any values at or beyond the usual limits of such assays
# Condition context: source organism: Vaccinia virus WR
pIC50: −log10 of the molar value.
Classify as follows. Reported pIC50 greater than or equal to 5: condition met. Reported pIC50 below: condition not met.

# example entries with known answers
ITVGMLIYSM ... condition met
CTNDIYCDEI ... condition met
PIPYSRVNHA ... condition not met
IVDKFGKNHI ... condition met
PLKDVERLQM ... condition not met

hey, is pIC50 for this one >= 5? `VTKSSSWKDV`
condition not met

hey, is pIC50 for this one >= 5? `KQIMECSRML`
condition not met

hey, is pIC50 for this one >= 5? `ETDDDGNYPL`
condition not met

hey, is pIC50 for this one >= 5? `ALYYVHSLL`
condition not met

hey, is pIC50 for this one >= 5? `ALWDSNFFT`
condition not met

hey, is pIC50 for this one >= 5? `VASDVCKKNL`
condition not met

hey, is pIC50 for this one >= 5? `DIPTFNSLNT`
condition not met

hey, is pIC50 for this one >= 5? `EVRYIDITNI`
condition met

hey, is pIC50 for this one >= 5? `DTMRIYCSL`
condition met

hey, is pIC50 for this one >= 5? `PTRTWKVLSI`
condition not met

---

# Measured on: HLA-A*02:01
# Run description: IEDB peptide-MHC binding, purified MHC/competitive/radioactivity; bounds were set here for any values at or beyond the usual limits of such assays
# Condition context: source organism: Vaccinia virus WR
// returns not fulfilled unless IC50 is strictly below 200 nM, in which case fulfilled

# example entries with known answers
NVDNLIMIV ... fulfilled
RLFTRCAVI ... not fulfilled
KLITSAFDLL ... not fulfilled
SLVKESMASL ... not fulfilled
LVLGIALLYI ... fulfilled
VLTSVDIET ... fulfilled

In the record for `TIGTIAGGV` , is IC50 less than 200 nM?
not fulfilled

In the record for `ALVASLNPNM` , is IC50 less than 200 nM?
not fulfilled

---

# Measured on: HLA-A*68:02
# Run description: IEDB peptide-MHC binding, purified MHC/competitive/radioactivity; bounds were set here for any values at or beyond the usual limits of such assays
# Condition context: source organism: Mammarenavirus brazilense
pIC50: −log10 of the molar value.
Classify as follows. Reported pIC50 greater than or equal to 7: Condition met. Reported pIC50 below: Condition not met.

LRYFIMAYV ... Condition met
HSLPRCWLV ... Condition not met
KNATWCLEV ... Condition not met
LLPDALLFTL ... Condition not met

hey, is pIC50 for this one >= 7? `RSASGGVYL`
Condition not met

hey, is pIC50 for this one >= 7? `LSNCVHPAV`
Condition not met

hey, is pIC50 for this one >= 7? `TSLGLLYTV`
Condition met

---

# Measured on: HLA-A*02:03
# Run description: IEDB peptide-MHC binding, purified MHC/competitive/radioactivity; bounds were set here for any values at or beyond the usual limits of such assays
# Condition context: source organism: Vaccinia virus WR
Reported property: pIC50
Remember, pIC50 is on a log scale: it is -log10 of the molar concentration.

The examples below pair each entry with its known result.
ELKHGLLDSI ... 7.26
FMEEEIKAEM ... 5.51
ILQMREIIT ... 5.87
KMAVEVGSI ... 8.55
KTVKNVDII ... 5.75

Which pIC50 is reported for this sequence? `NLFDIPLLT`
7.44

Which pIC50 is reported for this sequence? `HLRASTTENA`
7.42

Which pIC50 is reported for this sequence? `EMVEYLENQL`
6.68

Which pIC50 is reported for this sequence? `TIDAINKCV`
6.20

---

# Measured on: HLA-A*02:06
# Run description: IEDB peptide-MHC binding, cellular MHC/competitive/fluorescence; bounds were set here for any values at or beyond the usual limits of such assays
# Condition context: source organism: Vaccinia virus WR
Below, each entry is listed alongside its reported pIC50.
Remember, pIC50 is on a log scale: it is -log10 of the molar concentration.

The examples below pair each entry with its known result.
QAKKPEVRI ... 4.38
RVTKRDESSI ... 4.65
AIRAGYSIV ... 5.09
IADIRDKYM ... 4.24
CTSEIQNVT ... 4.99
EMKYALINLV ... 5.01
KTKISVEKI ... 4.97
ELTSNCTRTT ... 5.24

# query: pIC50 | item `FLRPVLKAM` | system: HLA-A*02:06
5.26

# query: pIC50 | item `DVDMDFDLNI` | system: HLA-A*02:06
5.23

# query: pIC50 | item `NTGMGMYYPT` | system: HLA-A*02:06
4.95
